# Target or test system: ZFP SBS#921 (synthetic)
# Sequence (chain, as listed by the source): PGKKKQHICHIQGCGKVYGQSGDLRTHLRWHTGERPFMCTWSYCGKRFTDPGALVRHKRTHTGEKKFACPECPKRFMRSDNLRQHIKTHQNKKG
# Test method notes: EMSA
# Reported conditions: tags: MBP fusion
pKd: −log10 of the molar value.

Binder	pKd
AAGGTCTCA (dsDNA) DNA 1: AAGGTCTCA DNA 2: TGAGACCTT	7.96
